target: T1, recombinant human VEGF165 (human, UniProt P15692-4 27-191, biotinylated in the competition assays); assay: SPR Biacore, immobilised hVEGF165, two state reaction model
T1 construct: Bought protein; also called hVEGF165; rhVEGF165
T1 sequence (P15692 other isoform, or with tags, fused parts or gaps): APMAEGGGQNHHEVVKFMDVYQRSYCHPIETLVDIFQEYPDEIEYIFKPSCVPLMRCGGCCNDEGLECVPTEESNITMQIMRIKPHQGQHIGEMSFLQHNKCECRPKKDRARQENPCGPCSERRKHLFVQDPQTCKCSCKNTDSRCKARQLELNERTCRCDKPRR
Quantity kind: ka1

Solved cases below.
VEGFBII023 (VHH, not shown: small tags and cut ends, Bivalent anti-VEGF VHH; also called VEGFBII23B04-40GS-10E07) EVQLVESGGGLVQTGDSLRLSCEVSGRTFSSYSMGWFRQAQGKEREFVVAISKGGYKYDSVSLEGRFTISKDNAKNTVYLQINSLKPEDTAVYYCASSRAYGSSRLRLADTYEYWGQGTQVTVSSGGGGSGGGGSGGGGSGGGGSGGGGSGGGGSGGGGSGGGGSEVQLVESGGGLVQAGGSLRLSCAASGRTFSNYAMGWFRQAPGKERVLVADISSSGINTYVADAVKGRFTISRDNAKNTVYLQMNSLKPEDTAVYYCAASAWWYSQMARDNYRYWGQGTQVTVSS; 300000 M⁻¹ s⁻¹
VEGFBII022 (VHH, not shown: small tags and cut ends, Bivalent (heterodimeric) anti-VEGF VHH; also called VEGFBII23B04-9GS-5B05) EVQLVESGGGLVQTGDSLRLSCEVSGRTFSSYSMGWFRQAQGKEREFVVAISKGGYKYDSVSLEGRFTISKDNAKNTVYLQINSLKPEDTAVYYCASSRAYGSSRLRLADTYEYWGQGTQVTVSSGGGGSGGGSEVQLVESGGGLVQPGGSLRLSCVASGIRFMSMAWYRQAPGKHRELVARISSGGTTAYVDSVKGRFTISRDNSKNTVYLQMNSLKAEDTAVYYCNTFSSRPNPWGAGTQVTVSS; 1.2e+06 M⁻¹ s⁻¹

Continue with the binder presented below.
Which ka1 is reported for this binder? VEGFBII021 (VHH, not shown: small tags and cut ends, Bivalent (heterodimeric) anti-VEGF VHH; also called VEGFBII23B04-40GS-5B05) EVQLVESGGGLVQTGDSLRLSCEVSGRTFSSYSMGWFRQAQGKEREFVVAISKGGYKYDSVSLEGRFTISKDNAKNTVYLQINSLKPEDTAVYYCASSRAYGSSRLRLADTYEYWGQGTQVTVSSGGGGSGGGGSGGGGSGGGGSGGGGSGGGGSGGGGSGGGGSEVQLVESGGGLVQPGGSLRLSCVASGIRFMSMAWYRQAPGKHRELVARISSGGTTAYVDSVKGRFTISRDNSKNTVYLQMNSLKAEDTAVYYCNTFSSRPNPWGAGTQVTVSS
1.2e+06 M⁻¹ s⁻¹
